Collected melting point values appear next to each entry.

Some entries whose results are on file:
• O=C(O)c1ccccc1NS(=O)(=O)c1ccccc1 [Compound 15h, 2-(Phenylsulfonamido)benzoic acid] = 213 to 215 °C
• CCCCCCCCCS(=O)(=O)NCc1ccc(C(=O)O)cc1 = 178 to 180 °C
• CCCCCCCCS(=O)(=O)Nc1ccc(O)cc1C(=O)O [Compound 24e] = 142 to 144 °C

Q. Entry under review: CCCCCCCCCS(=O)(=O)Nc1cccc(C(=O)O)c1 [Compound 15d, 3-(Nonylsulfonamido)benzoic acid] . Reported melting point?
A. 183 to 184 °C

* * *

Collected melting point values appear next to each entry.

Some entries whose results are on file:
* CCCCCS(=O)(=O)NCc1ccccc1C(=O)O | 100 °C
* CCCCCCCCCS(=O)(=O)Nc1cccc(CP(=O)(O)O)c1 [Compound 13d] | 149 to 150 °C
* CCCCCS(=O)(=O)NCc1cccc(C(=O)O)c1 | 160 to 161 °C
* CCCCCCCCCCCCCCS(=O)(=O)Nc1ccccc1C(=O)O [Compound 24b, 2-(Tetradecylsulfonamido)benzoic acid] | 120 to 122 °C
* CCCCCS(=O)(=O)Nc1ccc(CP(=O)(O)O)cc1 [Compound 13e] | 198 to 200 °C

Q. Entry under review: "CCCCCCCCCS(=O)(=O)NCc1ccccc1C(=O)O" . Reported melting point?
A. 79 to 82 °C

Q. Repeat with CCCCCCCCCCCCCCCCS(=O)(=O)Nc1ccccc1C(=O)O [Compound 24c, 2-(Hexadecylsulfonamido)benzoic acid]
A. 126 to 128 °C

* * *

Biological target: mtGPAT1 (Mus musculus)
Construct: from tissue; host or cells: mitochondrial preparation
Sequence (Q61586 1-827): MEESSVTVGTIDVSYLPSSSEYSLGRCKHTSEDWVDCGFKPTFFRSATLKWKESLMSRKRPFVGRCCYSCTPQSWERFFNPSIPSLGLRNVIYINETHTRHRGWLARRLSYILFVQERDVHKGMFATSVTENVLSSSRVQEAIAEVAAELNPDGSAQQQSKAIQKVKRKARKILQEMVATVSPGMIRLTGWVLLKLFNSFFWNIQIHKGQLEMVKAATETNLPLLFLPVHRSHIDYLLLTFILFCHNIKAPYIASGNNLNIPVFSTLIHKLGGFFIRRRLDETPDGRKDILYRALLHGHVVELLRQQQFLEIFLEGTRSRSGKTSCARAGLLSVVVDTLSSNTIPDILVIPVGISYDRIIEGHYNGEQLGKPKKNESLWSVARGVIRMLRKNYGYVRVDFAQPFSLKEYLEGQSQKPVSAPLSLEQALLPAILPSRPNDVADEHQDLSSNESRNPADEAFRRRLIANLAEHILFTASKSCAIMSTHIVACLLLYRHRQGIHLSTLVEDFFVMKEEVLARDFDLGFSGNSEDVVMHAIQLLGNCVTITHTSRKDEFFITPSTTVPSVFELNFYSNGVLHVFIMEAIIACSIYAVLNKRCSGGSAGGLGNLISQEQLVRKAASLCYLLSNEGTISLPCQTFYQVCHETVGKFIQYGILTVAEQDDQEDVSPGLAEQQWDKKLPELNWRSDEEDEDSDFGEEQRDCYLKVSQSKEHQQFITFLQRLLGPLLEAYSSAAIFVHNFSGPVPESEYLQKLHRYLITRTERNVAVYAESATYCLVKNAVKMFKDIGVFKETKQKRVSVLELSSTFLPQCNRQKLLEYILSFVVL
Test: In vitro mtGPAT inhibition: acylation of 14C-glycerol 3-phosphate with palmitoyl-CoA, scintillation counting
Type: biochemical
Settings: compounds 4a-t and 7a-t; read-out: GPAT IC50
Observation type: IC50 (µM)

- CCCCCCCCS(=O)(=O)Nc1ccc(-c2ccc(-c3ccccc3)cc2)cc1C(=O)O: 65.7

(1) CCCCCCCCS(=O)(=O)Nc1cc(-c2cccs2)ccc1C(=O)O
(2) CCCCCCCCS(=O)(=O)Nc1cc(-c2ccc(O)cc2)ccc1C(=O)O
(3) CCCCCCCCS(=O)(=O)Nc1ccc(-c2ccc(Cl)cc2)cc1C(=O)O
Q. Hey, quick one: sort these by IC50, largest value first please. Answer format: list of labels, ordered as asked.
A. 2, 1, 3
(2: 66.1 µM, 1: 22.5 µM, 3: 13.4 µM)

* * *

Collected melting point values appear next to each entry.

Some entries whose results are on file:
- CCCCCS(=O)(=O)Nc1cccc(CP(=O)(O)O)c1 [Compound 13c]: 127 to 128 °C
- CCCCCCCCS(=O)(=O)Nc1ccc(F)cc1C(=O)O [Compound 24f]: 141 to 143 °C
- CCCCCCCCCS(=O)(=O)NCc1cccc(C(=O)O)c1: 150 to 151 °C

Proceeding to the next compound to report its melting point.
Q. Entry under review: "CCCCCS(=O)(=O)NCc1ccc(C(=O)O)cc1" . Reported melting point?
A. 188 to 189 °C

* * *

Target: mtGPAT1 (Mus musculus)
Construct: from tissue; host or cells: mitochondrial preparation
Experiment: In vitro mtGPAT inhibition: acylation of 14C-glycerol 3-phosphate with palmitoyl-CoA, scintillation counting
Format: biochemical
Settings: Table 2, sulfonamides 15a-i and 17a-f; triplicate; read-out: IC50 (μM) ± SD, In Vitro Anti-mtGPAT1 Activity
Observation type: IC50 (µM)

- O=C(O)c1cccc(NS(=O)(=O)Cc2ccccc2)c1 [Compound 17c, 3-(Phenylmethylsulfonamido)benzoic acid]: 52.1
- CCCCCCCCCS(=O)(=O)Nc1cccc(C(=O)O)c1 [Compound 15d, 3-(Nonylsulfonamido)benzoic acid]: 24.2
- O=C(O)c1ccccc1NS(=O)(=O)c1ccc(Cl)cc1 [Compound 15i]: 33.5

(P) O=C(O)c1ccc(NS(=O)(=O)c2ccccc2)cc1 [Compound 15b, 4-(Phenylsulfonamido)benzoic acid]
(Q) O=C(O)c1ccc(NS(=O)(=O)CCc2ccccc2)cc1 [Compound 17b, 4-(2-Phenylethylsulfonamido)benzoic acid]
Q. Parameter check: reported IC50 is higher for which label, P or Q ? Record your answer as the label of the chosen record.
A. Q
(Q: 63 µM, P: 41.9 µM)

* * *

Target: mtGPAT1 (Mus musculus, UniProt Q61586)
Construct: from tissue; host or cells: mitochondrial preparation
Sequence (Q61586 1-827): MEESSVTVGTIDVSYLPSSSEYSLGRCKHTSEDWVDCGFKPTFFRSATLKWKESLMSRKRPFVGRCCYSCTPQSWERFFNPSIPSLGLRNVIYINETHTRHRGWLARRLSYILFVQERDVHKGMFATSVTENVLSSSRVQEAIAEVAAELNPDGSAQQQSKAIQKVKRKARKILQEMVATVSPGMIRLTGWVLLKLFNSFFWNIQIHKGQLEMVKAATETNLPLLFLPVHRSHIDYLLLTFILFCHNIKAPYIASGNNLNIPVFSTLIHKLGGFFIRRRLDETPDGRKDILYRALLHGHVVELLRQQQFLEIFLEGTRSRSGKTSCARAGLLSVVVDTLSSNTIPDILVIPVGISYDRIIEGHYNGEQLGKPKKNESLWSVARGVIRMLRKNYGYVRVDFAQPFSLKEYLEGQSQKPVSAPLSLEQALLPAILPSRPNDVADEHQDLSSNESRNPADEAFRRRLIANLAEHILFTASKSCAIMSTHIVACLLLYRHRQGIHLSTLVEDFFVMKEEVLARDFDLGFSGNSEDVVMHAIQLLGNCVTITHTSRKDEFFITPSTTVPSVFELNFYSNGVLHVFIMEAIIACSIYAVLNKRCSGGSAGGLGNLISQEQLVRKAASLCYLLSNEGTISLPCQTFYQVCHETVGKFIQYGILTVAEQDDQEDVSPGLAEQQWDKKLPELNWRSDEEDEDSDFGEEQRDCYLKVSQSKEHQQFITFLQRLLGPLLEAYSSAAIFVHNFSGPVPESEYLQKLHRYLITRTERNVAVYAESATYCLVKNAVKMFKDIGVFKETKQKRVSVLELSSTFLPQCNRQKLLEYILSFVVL
Experiment: In vitro mtGPAT inhibition: acylation of 14C-glycerol 3-phosphate with palmitoyl-CoA, scintillation counting
Type: biochemical
Conditions: Table 3, sulfonamides 21a-c and 24a-f; triplicate; read-out: IC50 (μM) ± SD, In Vitro Anti-mtGPAT1 Activity
Observation type: IC50 (µM)

Some entries whose results are on file:
* CCCCCCCCS(=O)(=O)Nc1ccc(F)cc1C(=O)O [Compound 24f] | 29.5
* CCCCCCCCCS(=O)(=O)Nc1ccc(Cl)cc1C(=O)O [Compound 24d] | 11.5
* CS(=O)(=O)Nc1ccccc1C(=O)O [Compound 24a, 2-(Methylsulfonamido)benzoic acid] | 28.6
* CCCCCCCCS(=O)(=O)Nc1ccc(P(=O)(O)O)cc1 [Compound 21a] | 33.3

(I) CCCCCCCCS(=O)(=O)Nc1ccc(O)cc1C(=O)O [Compound 24e]
(II) CCCCCCCCS(=O)(=O)Nc1cccc(P(=O)(O)O)c1 [Compound 21b]
Q. Parameter check: reported IC50 is higher for which label, I or II ? Record your answer as the label of the chosen record.
A. I
